Values from patent US8778923B2

Target: GLP-1R (Homo sapiens, UniProt P43220)
Sequence (P43220 24-463): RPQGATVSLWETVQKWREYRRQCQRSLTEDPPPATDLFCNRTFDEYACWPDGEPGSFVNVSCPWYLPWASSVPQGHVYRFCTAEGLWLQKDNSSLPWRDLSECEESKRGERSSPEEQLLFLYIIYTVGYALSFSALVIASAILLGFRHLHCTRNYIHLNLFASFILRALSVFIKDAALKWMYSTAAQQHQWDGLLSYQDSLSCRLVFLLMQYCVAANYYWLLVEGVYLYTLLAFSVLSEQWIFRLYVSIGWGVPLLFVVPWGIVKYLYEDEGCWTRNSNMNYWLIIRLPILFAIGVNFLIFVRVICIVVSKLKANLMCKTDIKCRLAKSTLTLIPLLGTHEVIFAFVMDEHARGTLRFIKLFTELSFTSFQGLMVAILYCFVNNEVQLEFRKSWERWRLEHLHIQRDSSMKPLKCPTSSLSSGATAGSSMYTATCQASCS
Sequence (P01275 100-127 partner limits assumed): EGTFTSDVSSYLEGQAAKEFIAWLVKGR
Test: EC20 GLP-1(9-36) PAM cAMP assay: dose response of compound in the presence of fixed concentration of GLP-1(9-36)
Details: GLP-1R CRE-bla CHO-K1 cells, compound dose response in presence of fixed concentration of GLP-1(9-36)
The compounds listed here are annotated with their EC50.

compound	EC50
CCCCCCCOc1ccc(-c2cnc(-c3ccc(C[C@H](NC(=O)c4c(Cl)ccc(F)c4Cl)C(=O)O)cc3)nc2)cc1 [Compound 116]	0.8 to 2.5 µM
CCCCCCCOc1ccc(-c2cnc(-c3ccc(C[C@H](NC(=O)c4cccc(N5CCCC5)c4)C(=O)O)cc3)nc2)cc1 [Compound 92]	0.8 to 2.5 µM
CNc1ccc(-c2cnc(-c3ccc(C[C@H](NC(=O)c4ccc(C(C)(C)C)cc4)C(=O)O)cc3)nc2)cc1 [Compound 233]	2.5 to 5 µM
COc1ccc(-c2ccc(-c3nc(-c4ccc(C[C@H](NC(=O)c5ccc(C(C)(C)C)cc5)C(=O)O)cc4)no3)cc2)c(OC)c1 [Compound 25]	0.8 to 2.5 µM
CCCCCCCOc1ccc(-c2cnc(-c3ccc(C[C@H](NC(=O)c4ccc(C(F)(F)F)cc4)C(=O)O)cc3)nc2)cc1 [Compound 93]	5 to 10 µM
CCCCCCCOc1ccc(-c2cnc(-c3ccc(C[C@H](NC(=O)c4ccc(OCC(C)C)cc4)C(=O)O)cc3)nc2)cc1 [Compound 121]	0.8 to 2.5 µM
